Provide the recorded refractive index for the entries that follow.
Assay: refractive index (Na D-line) (dimensionless)
Conditions: 308.15 K; 100 kPa; Liquid; Standard Abbe refractometry
Give bare numbers.

OCCCO	1.43515
CCCCO	1.39311

Record refractive index per entry; entries follow.
1. CN1CCC[C@H]1c1cccnc1 [(-)-3-(N-methylpyrrolidino)pyridine]
2. CCC(C)O (stereo not given)
3. CC(O)CO (stereo not given)

output:
1.51988
1.39045
1.42773

---

Conditions: 323.15 K; 100 kPa; Liquid; Vibrating tube method
Response key: MET means mass density >= 1000 kg/m3; NOT MET means mass density < 1000 kg/m3.

See these solved cases before continuing.
CCCCO [butan-1-ol]	NOT MET
CCC(C)O (stereo not given) [butan-2-ol]	NOT MET

input: Does the compound OCCCO [propan-1,3-diol] have recorded mass density that is 1000 kg/m3 or more?
output: MET
